# Test system: CUG foci in primary DM1 patient myoblasts
# EXPERIMENT_NOTES: Dual-cut screening: FISH staining of CUG RNA foci
# Assay type: cell-based, human
# CONDITION_PARAMETERS: sgRNA pair; primary DM1 patient myoblasts; 3 μM DNA-PKi Compound 6 for 48 hours
Recorded measurements of % of CUG foci free nuclei (DNA-PKi), one per entry
Field: numeric (%). Do not append units.

Below, 2 substances whose answers are already recorded.
SUBSTANCE | OBSERVATION_TYPE | MEASURED_VALUE
SluU62 + SluD34 (guide 1 AGGACCCTTCGAGCCCCGTTCG; guide 2 CGCGCCAGACGCTCCCCAGAGC; guide RNA; listed as DNA, chemistry not fully specified) | % of CUG foci free nuclei (DNA-PKi) | 88.29
SluU64 + SluD68 (guide 1 GGGCTCGAAGGGTCCTTGTAGC; guide 2 CCTGTAGCCTGTCAGCGAGTCG; guide RNA; listed as DNA, chemistry not fully specified) | % of CUG foci free nuclei (DNA-PKi) | 89.56

## Input Query: % of CUG foci free nuclei (DNA-PKi); subject: SluU62 + SluD48 (guide 1 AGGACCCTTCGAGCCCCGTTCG; guide 2 GAGAGCAGCGCAAGTGAGGAGG; guide RNA; listed as DNA, chemistry not fully specified)
## Output 88.08

## Input # lookup: % of CUG foci free nuclei (DNA-PKi) of SluU21 + SluD56 (guide 1 GCTCGGAGCGGTTGTGAACTGG; guide 2 CCAGCCGGCTCCGCCCGCTTCG; guide RNA; listed as DNA, chemistry not fully specified)
## Output 85.39

## Input Request the reported % of CUG foci free nuclei (DNA-PKi) associated with SluU21 + SluD100 (guide 1 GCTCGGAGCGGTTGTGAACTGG; guide 2 GTCCAGAGCTTTGGGCAGATGG; guide RNA; listed as DNA, chemistry not fully specified)
## Output 87.7

---

# Test system: CUG foci in primary DM1 patient myoblasts
# EXPERIMENT_NOTES: Single-cut screening: FISH staining of CUG RNA foci
# Assay type: cell-based, human
# CONDITION_PARAMETERS: single sgRNA; primary DM1 patient myoblasts; vehicle
OBSERVATION_TYPE: % of CUG foci free nuclei (Vehicle) (%)
Write it as a number; the unit % goes unstated.

SUBSTANCE | OBSERVATION_TYPE | MEASURED_VALUE
TCCGAGAGCAGCGCAAGTGAGG (guide RNA; chemistry not fully specified) [SluD51] | % of CUG foci free nuclei (Vehicle) | 14.34
gagggaggggccgggtccgcgg (GAGGGAGGGGCCGGGTCCGCGG; guide RNA; chemistry not fully specified) [SluU54] | % of CUG foci free nuclei (Vehicle) | 13.12
CAGTGCATCCAAAACGTGGATT (guide RNA; chemistry not fully specified) [SluD75] | % of CUG foci free nuclei (Vehicle) | 11.9
CGTGGATGGGCAAACTGCAGGC (guide RNA; chemistry not fully specified) [SluD12] | % of CUG foci free nuclei (Vehicle) | 17.76
gccccgttcgccggccgcggac (guide GCCCCGTTCGCCGGCCGCGGAC; listed as DNA, chemistry not fully specified) [SluU58] | % of CUG foci free nuclei (Vehicle) | 16.57

## Input I'd like to know its % of CUG foci free nuclei (Vehicle). The substance in question is CGGCTCCGCCCGCTTCGGCGGT (guide RNA; chemistry not fully specified) [SluD60]
## Output 6.71

## Input For gggccgggtccgcggccggcga (GGGCCGGGTCCGCGGCCGGCGA; guide RNA; chemistry not fully specified) [SluU55] , what is its reported % of CUG foci free nuclei (Vehicle)?
## Output 27.94

---

# Tested on: CAG foci in primary DM1 patient myoblasts
# EXPERIMENT_NOTES: Single-cut screening: CAG foci staining
# Assay type: cell-based, human
# CONDITION_PARAMETERS: single sgRNA, DNA-PKi treated
OBSERVATION_TYPE: % of CAG foci positive nuclei (DNA-PKi) (%)
The reply should contain only the number, in %.

SUBSTANCE | MEASURED_ON | OBSERVATION_TYPE | MEASURED_VALUE
AACCAACGATAGGTGGGGGTGC (guide RNA; chemistry not fully specified) [SluD24] | CAG foci in primary DM1 patient myoblasts | % of CAG foci positive nuclei (DNA-PKi) | 1.68

## Input So what does the record say about % of CAG foci positive nuclei (DNA-PKi) for CCGGGCCCGCCCCCTAGCggcc (guide RNA; as printed in the source, key not given here) [SluU37] ?
## Output 2.28

## Input Bench note: what % of CAG foci positive nuclei (DNA-PKi) did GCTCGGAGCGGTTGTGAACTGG (listed as DNA, chemistry not fully specified) [SluU21] show?
## Output 0.66

## Input Using the record for TGTCTTCGACTCCGGGGCCCCG (listed as DNA, chemistry not fully specified) [SluU06] , report its % of CAG foci positive nuclei (DNA-PKi).
## Output 1.1

---

# System: CAG foci in primary DM1 patient myoblasts
# EXPERIMENT_NOTES: Single-cut screening: CAG foci staining
# Assay type: cell-based, human
# CONDITION_PARAMETERS: single sgRNA, vehicle
OBSERVATION_TYPE: % of CAG foci positive nuclei (Vehicle) (%)
I only need the number, in %, no unit after it.

SUBSTANCE | % of CAG foci positive nuclei (Vehicle) [%]
ATAAATATCCAAACCGCCGAAG (guide RNA; chemistry not fully specified) [SluD63] | 0.85

## Input Please tell me: % of CAG foci positive nuclei (Vehicle) of GGGCTCCGAGAGCAGCGCAAGT (guide RNA; chemistry not fully specified) [SluD53] , system CAG foci in primary DM1 patient myoblasts?
## Output 1.94

## Input GET /values?readout=% of CAG foci positive nuclei (Vehicle)&system=CAG foci in primary DM1 patient myoblasts&item= GACAATAAATACCGAGGAATGT (guide RNA; chemistry not fully specified) [SluD81]
## Output 1.54

## Input // fetch CAG foci in primary DM1 patient myoblasts % of CAG foci positive nuclei (Vehicle) for GGCCTTTTATTCGCGAGGGTCG (guide RNA; chemistry not fully specified) [SluD94]
## Output 1

## Input Test system CAG foci in primary DM1 patient myoblasts; read-out % of CAG foci positive nuclei (Vehicle); what value for ATGGGCAAACTGCAGGCCTGGG (listed as DNA, chemistry not fully specified) [SluD14] ?
## Output 6.7

## Input Quick check: % of CAG foci positive nuclei (Vehicle) on CAG foci in primary DM1 patient myoblasts, item GAGGGCCTTTTATTCGCGAGGG (guide RNA; chemistry not fully specified) [SluD97] ?
## Output 1.19

## Input Request - read-out % of CAG foci positive nuclei (Vehicle) | tested on CAG foci in primary DM1 patient myoblasts | substance TGGGCGGAGACCCACGCTCGGA (guide RNA; chemistry not fully specified) [SluU25]
## Output 0.92

## Input Under CAG foci in primary DM1 patient myoblasts: % of CAG foci positive nuclei (Vehicle) value of AGGACCCTTCGAgccccgttcg (as printed in the source, key not given here) [SluU62] ?
## Output 1

---

% of CUG foci free nuclei (DNA-PKi): recorded values
# Test system: CUG foci in primary DM1 patient myoblasts
# EXPERIMENT_NOTES: Dual-cut screening: FISH staining of CUG RNA foci
# Assay type: cell-based, human
# CONDITION_PARAMETERS: sgRNA pair; primary DM1 patient myoblasts; 3 μM DNA-PKi Compound 6 for 48 hours
Write it as a number; the unit % goes unstated.

SUBSTANCE | MEASURED_VALUE
SluU63 + SluD48 (guide 1 GGGGCTCGAAGGGTCCTTGTAG; guide 2 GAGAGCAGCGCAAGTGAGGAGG; guide RNA; listed as DNA, chemistry not fully specified) | 90.03
SluU06 + SluD83 (guide 1 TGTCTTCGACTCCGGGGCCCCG; guide 2 GTGGGGACAGACAATAAATACC; guide RNA; listed as DNA, chemistry not fully specified) | 89.45
SluU06 + SluD100 (guide 1 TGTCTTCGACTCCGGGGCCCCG; guide 2 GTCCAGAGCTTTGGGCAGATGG; guide RNA; listed as DNA, chemistry not fully specified) | 87.37

## Input Field: % of CUG foci free nuclei (DNA-PKi) (CUG foci in primary DM1 patient myoblasts). Entry: SluU59 + SluD48 (guide 1 CGCGGCCGGCGAACGGGGCTCG; guide 2 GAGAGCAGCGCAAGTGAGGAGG; guide RNA; listed as DNA, chemistry not fully specified)
## Output 87.28

## Input Request - read-out % of CUG foci free nuclei (DNA-PKi) | tested on CUG foci in primary DM1 patient myoblasts | substance SluU08 + SluD18 (guide 1 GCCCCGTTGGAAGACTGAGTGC; guide 2 TGGAGGATGGAACACGGACGGC; guide RNA; listed as DNA, chemistry not fully specified)
## Output 90.44
